Biological target: F protein of wild type RSV A/Long (respiratory syncytial virus, strain …, UniProt P12568 26-574)
Sequence (P12568 26-574): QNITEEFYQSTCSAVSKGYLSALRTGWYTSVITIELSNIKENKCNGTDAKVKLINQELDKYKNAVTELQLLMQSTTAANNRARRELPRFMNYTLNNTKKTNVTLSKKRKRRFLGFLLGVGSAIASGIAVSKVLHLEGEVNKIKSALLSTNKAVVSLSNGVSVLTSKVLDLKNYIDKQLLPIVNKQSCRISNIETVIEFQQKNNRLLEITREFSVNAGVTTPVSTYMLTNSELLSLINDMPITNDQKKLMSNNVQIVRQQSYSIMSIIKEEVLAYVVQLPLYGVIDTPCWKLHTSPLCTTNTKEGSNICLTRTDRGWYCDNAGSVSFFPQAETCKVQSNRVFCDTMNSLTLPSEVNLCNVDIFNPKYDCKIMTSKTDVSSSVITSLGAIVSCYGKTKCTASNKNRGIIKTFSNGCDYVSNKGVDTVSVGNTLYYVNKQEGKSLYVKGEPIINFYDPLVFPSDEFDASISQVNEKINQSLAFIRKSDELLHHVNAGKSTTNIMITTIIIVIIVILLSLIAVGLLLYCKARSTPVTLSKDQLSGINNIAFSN
Experiment: cell-based or functional assay
VALUE KIND: Fold Difference (Curve IC50) (fold)
Give the value in fold but do not write fold after it.

P12f4 (monoclonal antibody) (antibody, V domains shown) VH: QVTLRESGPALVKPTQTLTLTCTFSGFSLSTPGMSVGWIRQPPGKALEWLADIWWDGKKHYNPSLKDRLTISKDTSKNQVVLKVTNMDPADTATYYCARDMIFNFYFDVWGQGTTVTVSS VL: DIQMTQSPSTLSASVGDRVTITCSLSSRVGYMHWYQQKPGKAPKLLIYDTRGLPSGVPSRFSGSGSGTEFTLTISSLQPDDFATYYCFQGSGYPFTFGGGTKVEIK    19

query: Look up Fold Difference (Curve IC50) for this binder: P12f2 (Fab) (Fab, V domains shown, also called Pf12; P1212) VH: QVTLRESGPALVKPTQTLTLTCTFSGFSLSTPGMSVGWIRQPPGKALEWLADIWWDDKKHYNPSLKDRLTISKDTSKNQVVLKVTNMDPADTATYYCARDMIFNFYFDVWGAGTTVTVSS VL: DIQMTQSPSTLSASVGDRVTITCSLSSRVGYMHWYQQKPGKAPKLLIYDTFYLSSGVPSRFSGSGSGTEFTLTISSLQPDDFATYYCFQGSGYPFTFGGGTKVEIK
result: 11

query: A13c4 (monoclonal antibody) (antibody, V domains shown) VH: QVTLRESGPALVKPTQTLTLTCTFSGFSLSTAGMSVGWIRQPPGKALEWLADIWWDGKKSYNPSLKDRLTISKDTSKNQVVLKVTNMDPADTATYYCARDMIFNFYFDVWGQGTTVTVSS VL: DIQMTQSPSTLSASVGDRVTITCSLSSRVGYMHWYQQKPGKAPKLLIYDTMYQSSGVPSRFSGSGSGTEFTLTISSLQPDDFATYYCFQGSGYPFTFGGGTKVEIK ?
result: 12
